- Test system: SF-295 CNS
- PROTOCOL TEXT: NCI tumour cell line growth inhibition, 48 h
Each entry below carries its reported TGI.

Would you please look over these solved cases?
[[record]]
molecule = "CC(=O)/C=C/c1cn(C(=O)OC(C)(C)C)c2ccc(Br)cc12"
property_label = "TGI"
recorded_measurement = "28.8 µM"

[[record]]
molecule = "CC1(C)OC(=O)C(C#N)=C1/C=C/c1coc2ccc(Cl)cc2c1=O"
property_label = "TGI"
recorded_measurement = "> 100 µM"

[[record]]
molecule = "CCCc1c(-c2ccccc2)[nH]c2ccccc2c1=O"
property_label = "TGI"
recorded_measurement = "> 100 µM"

[[record]]
molecule = "CS(=O)(=O)OCC1CN(S(C)(=O)=O)c2cc(O)ccc21 (centres undefined)"
property_label = "TGI"
recorded_measurement = "14.6 µM"

[[record]]
molecule = "NCCSS(=O)(=O)CCN"
property_label = "TGI"
recorded_measurement = "> 100 µM"


Now let's try a different one.
Exam item: Annotate the molecule `Cc1ccc(/C=N\NC(=O)c2[nH]c3ccc(F)cc3c2-c2ccccc2)cc1` with its measured TGI.
Marked response: 1.2 µM
